- TEST_TARGET: PR-B (Homo sapiens, UniProt P06401)
- Sequence (P06401 whole entry): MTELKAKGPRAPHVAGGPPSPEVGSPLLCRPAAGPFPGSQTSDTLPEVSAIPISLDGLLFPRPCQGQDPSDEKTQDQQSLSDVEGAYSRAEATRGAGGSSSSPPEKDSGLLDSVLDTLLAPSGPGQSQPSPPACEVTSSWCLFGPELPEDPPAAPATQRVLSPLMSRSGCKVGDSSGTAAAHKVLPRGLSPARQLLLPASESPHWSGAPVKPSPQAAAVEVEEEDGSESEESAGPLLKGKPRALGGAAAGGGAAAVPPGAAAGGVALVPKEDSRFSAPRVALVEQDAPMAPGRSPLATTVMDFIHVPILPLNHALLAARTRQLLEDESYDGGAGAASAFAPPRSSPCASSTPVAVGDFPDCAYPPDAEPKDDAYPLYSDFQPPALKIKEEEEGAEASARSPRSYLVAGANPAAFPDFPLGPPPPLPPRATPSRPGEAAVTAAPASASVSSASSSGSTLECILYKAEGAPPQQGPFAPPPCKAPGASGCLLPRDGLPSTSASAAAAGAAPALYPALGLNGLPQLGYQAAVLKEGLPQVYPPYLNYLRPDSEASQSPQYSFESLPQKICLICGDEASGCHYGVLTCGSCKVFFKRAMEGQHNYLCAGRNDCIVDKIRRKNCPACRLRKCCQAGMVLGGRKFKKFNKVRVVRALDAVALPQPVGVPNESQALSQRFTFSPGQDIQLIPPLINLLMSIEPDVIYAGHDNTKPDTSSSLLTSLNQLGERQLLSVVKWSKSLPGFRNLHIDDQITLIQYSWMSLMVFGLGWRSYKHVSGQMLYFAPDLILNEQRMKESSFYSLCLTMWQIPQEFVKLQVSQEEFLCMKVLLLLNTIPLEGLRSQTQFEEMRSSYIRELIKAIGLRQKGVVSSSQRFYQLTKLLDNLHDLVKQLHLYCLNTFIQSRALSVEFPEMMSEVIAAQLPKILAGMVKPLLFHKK
- ASSAY_DETAILS: Direct inhibition of PR-B transcriptional activity, CV-1 cells
- Assay type: cell-based
- Design: expressed in transfected cells; host or cells: CV-1, HepG2 (PRE2 tk-LUC); HeLa, also HepG2 and CV-1 (TAT promoter)
- TEST_SETTINGS: read-out: IC50 (50% maximal Inhibitory concentration), transcriptional activity of PR-B; in the presence of 10^-8 progesterone
REPORTED_METRIC: IC50 (nM)
One number for each entry, in nM.

Give its IC50 value. Item: `CC#C[C@]1(O)CC[C@H]2[C@@H]3CCC4=CC(=O)CCC4=C3[C@@H](c3ccc(C(C)=O)cc3)C[C@@]21C`
0.6

Origin of measurements: patent US5506102A
